Data origin, for the record: ChEMBL document CHEMBL3046507

Below is a list of entries, each paired with its recorded inhibition at 750 g/ha value.
tested on: Echinochloa crus-galli; assay: Herbicidal activity against Echinochloa crus-galli (barnyard grass) assessed as inhibition of fresh plant weight at 750 g/ha using preemergence protocol measured after 24 days under green house conditions; details: pre-emergence
Give the quantity in %, number only.

[[record]]
smiles_code = "Cc1cc(-c2cccc(C(F)(F)F)c2)c(NCc2ccccc2)nn1"
assay_target = "Echinochloa crus-galli"
parameter_measured = "inhibition at 750 g/ha"
units_symbol = "%"
meas_value = 0

[[record]]
smiles_code = "Cc1cc(-c2cccc(C(F)(F)F)c2)c(Nc2cccc(Br)c2)nn1"
assay_target = "Echinochloa crus-galli"
parameter_measured = "inhibition at 750 g/ha"
units_symbol = "%"
meas_value = 0

[[record]]
smiles_code = "Cc1cc(-c2cccc(C(F)(F)F)c2)c(NCc2ccccc2F)nn1"
assay_target = "Echinochloa crus-galli"
parameter_measured = "inhibition at 750 g/ha"
units_symbol = "%"
meas_value = 0

[[record]]
smiles_code = "Cc1ccc(CNc2nnc(C)cc2-c2cccc(C(F)(F)F)c2)cc1"
assay_target = "Echinochloa crus-galli"
parameter_measured = "inhibition at 750 g/ha"
units_symbol = "%"
meas_value = 78


Query string: Return inhibition at 750 g/ha measured with Echinochloa crus-galli given this compound: COc1ccc(CNc2nnc(C)cc2-c2cccc(C(F)(F)F)c2)cc1
Result string: 22

###

tested on: Amaranthus retroflexus; experiment: Herbicidal activity against Amaranthus retroflexus assessed as inhibition of fresh plant weight at 75 g/ha using postemergence protocol measured after 24 days under green house conditions; conditions: post-emergence
Below is a list of entries, each paired with its recorded inhibition at 75 g/ha value.

Some compounds with recorded inhibition at 75 g/ha:
[[record]]
compound = "Cc1cc(-c2cccc(C(F)(F)F)c2)c(Nc2cccc(C(F)(F)F)c2)nn1"
meas_value = "32%"

[[record]]
compound = "Cc1cc(-c2cccc(C(F)(F)F)c2)c(Nc2ccccc2F)nn1"
meas_value = "39%"

[[record]]
compound = "Cc1cc(-c2cccc(C(F)(F)F)c2)c(Nc2ccccc2)nn1"
meas_value = "18%"

[[record]]
compound = "Cc1cc(-c2cccc(C(F)(F)F)c2)c(Nc2ccc(Cl)cc2)nn1"
meas_value = "42%"

[[record]]
compound = "Cc1cc(-c2cccc(C(F)(F)F)c2)c(Nc2ccc(F)cc2)nn1"
meas_value = "32%"


Kindly consider the entry below.
Query string: Look up inhibition at 75 g/ha: O=C(Nc1ccc(F)cc1F)c1cccnc1Oc1cccc(C(F)(F)F)c1 [DIFLUFENICAN]
Result string: 41%

###

test system: Echinochloa crus-galli; experiment: Herbicidal activity against Echinochloa crus-galli (barnyard grass) assessed as inhibition of fresh plant weight at 750 g/ha using preemergence protocol measured after 24 days under green house conditions; conditions: pre-emergence
Rule: inhibition at 750 g/ha under 3% gives not satisfied, otherwise satisfied.

Look over these answered cases.
[[record]]
molecule = "Cc1ccc(Nc2nnc(C)cc2-c2cccc(C(F)(F)F)c2)cc1"
group_label = "not satisfied"

[[record]]
molecule = "Cc1cc(-c2cccc(C(F)(F)F)c2)c(Nc2ccc(OC(F)(F)F)cc2)nn1"
group_label = "not satisfied"

[[record]]
molecule = "Cc1cc(-c2cccc(C(F)(F)F)c2)c(Nc2ccc(Br)cc2)nn1"
group_label = "satisfied"

[[record]]
molecule = "Cc1cc(-c2cccc(C(F)(F)F)c2)c(NCCc2ccccc2)nn1"
group_label = "satisfied"


Query string: Identify whether the reported inhibition at 750 g/ha of the following molecule is 3% or greater: COc1ccc(Nc2nnc(C)cc2-c2cccc(C(F)(F)F)c2)cc1
Result string: satisfied

###

tested on: Echinochloa crus-galli; assay: Herbicidal activity against Echinochloa crus-galli (barnyard grass) assessed as inhibition of fresh plant weight at 750 g/ha using postemergence protocol measured after 24 days under green house conditions; settings: post-emergence
Rule: inhibition at 750 g/ha under 20% gives Condition not met, otherwise Condition met.

[[record]]
smiles_code = "Cc1cc(-c2cccc(C(F)(F)F)c2)c(Nc2ccc(F)cc2)nn1"
group_label = "Condition met"

[[record]]
smiles_code = "Cc1cccc(Nc2nnc(C)cc2-c2cccc(C(F)(F)F)c2)c1"
group_label = "Condition met"

[[record]]
smiles_code = "COc1ccccc1Nc1nnc(C)cc1-c1cccc(C(F)(F)F)c1"
group_label = "Condition not met"

[[record]]
smiles_code = "Cc1cc(-c2cccc(C(F)(F)F)c2)c(Nc2ccccc2Cl)nn1"
group_label = "Condition met"

[[record]]
smiles_code = "Cc1cc(-c2cccc(C(F)(F)F)c2)c(Nc2ccc(OC(F)(F)F)cc2)nn1"
group_label = "Condition met"


Switching to the query record.
Query string: Identify whether the reported inhibition at 750 g/ha of the following molecule is 20% or greater: Cc1cc(-c2cccc(C(F)(F)F)c2)c(NCc2ccccc2)nn1
Result string: Condition not met

###

tested on: Amaranthus retroflexus; experiment: Herbicidal activity against Amaranthus retroflexus assessed as inhibition of fresh plant weight at 750 g/ha using preemergence protocol measured after 24 days under green house conditions; conditions: pre-emergence
Rule: inhibition at 750 g/ha under 8% gives not fulfilled, otherwise fulfilled.

Look over these answered cases.
[[record]]
compound = "Cc1cc(-c2cccc(C(F)(F)F)c2)c(Nc2ccccc2F)nn1"
assay_target = "Amaranthus retroflexus"
group_label = "not fulfilled"

[[record]]
compound = "Cc1cc(-c2cccc(C(F)(F)F)c2)c(NCCc2ccccc2)nn1"
assay_target = "Amaranthus retroflexus"
group_label = "fulfilled"

[[record]]
compound = "Cc1cc(-c2cccc(C(F)(F)F)c2)c(Nc2ccccc2)nn1"
assay_target = "Amaranthus retroflexus"
group_label = "fulfilled"

[[record]]
compound = "Cc1cc(-c2cccc(C(F)(F)F)c2)c(Nc2ccc(F)cc2)nn1"
assay_target = "Amaranthus retroflexus"
group_label = "fulfilled"

[[record]]
compound = "Cc1cc(-c2cccc(C(F)(F)F)c2)c(Nc2ccc(Br)cc2)nn1"
assay_target = "Amaranthus retroflexus"
group_label = "fulfilled"

[[record]]
compound = "Cc1cc(-c2cccc(C(F)(F)F)c2)c(Nc2ccc(Cl)cc2)nn1"
assay_target = "Amaranthus retroflexus"
group_label = "not fulfilled"

[[record]]
compound = "Cc1cc(-c2cccc(C(F)(F)F)c2)c(Nc2cccc(C(F)(F)F)c2)nn1"
assay_target = "Amaranthus retroflexus"
group_label = "not fulfilled"

[[record]]
compound = "Cc1cc(-c2cccc(C(F)(F)F)c2)c(NC(C)c2ccc(Cl)cc2)nn1 (configuration not stated)"
assay_target = "Amaranthus retroflexus"
group_label = "fulfilled"

[[record]]
compound = "COc1ccccc1Nc1nnc(C)cc1-c1cccc(C(F)(F)F)c1"
assay_target = "Amaranthus retroflexus"
group_label = "not fulfilled"

[[record]]
compound = "Cc1cccc(Nc2nnc(C)cc2-c2cccc(C(F)(F)F)c2)c1"
assay_target = "Amaranthus retroflexus"
group_label = "fulfilled"


Query string: Identify whether the reported inhibition at 750 g/ha of the following compound is 8% or greater: Cc1cc(-c2cccc(C(F)(F)F)c2)c(Nc2ccccc2Cl)nn1
Result string: fulfilled

Query string: Identify whether the reported inhibition at 750 g/ha of the following compound is 8% or greater: COc1ccc(CNc2nnc(C)cc2-c2cccc(C(F)(F)F)c2)cc1
Result string: not fulfilled

Query string: Identify whether the reported inhibition at 750 g/ha of the following compound is 8% or greater: Cc1ccc(CNc2nnc(C)cc2-c2cccc(C(F)(F)F)c2)cc1
Result string: fulfilled

###

tested on: Brassica rapa subsp. oleifera; test: Herbicidal activity against Brassica rapa subsp. oleifera assessed as inhibition of fresh plant weight at 75 g/ha using postemergence protocol measured after 24 days under green house conditions; conditions: post-emergence
Rule: inhibition at 75 g/ha under 60% gives f, otherwise t.

Query string: Identify whether the reported inhibition at 75 g/ha of the following compound is 60% or greater: O=C(Nc1ccc(F)cc1F)c1cccnc1Oc1cccc(C(F)(F)F)c1 [DIFLUFENICAN]
Result string: f

###

Below is a list of entries, each paired with its recorded inhibition at 750 g/ha value.
tested on: Echinochloa crus-galli; assay: Herbicidal activity against Echinochloa crus-galli (barnyard grass) assessed as inhibition of fresh plant weight at 750 g/ha using postemergence protocol measured after 24 days under green house conditions; conditions: post-emergence
Give the quantity in %, number only.

[[record]]
compound = "Cc1ccc(CNc2nnc(C)cc2-c2cccc(C(F)(F)F)c2)cc1"
units_symbol = "%"
meas_value = 0

[[record]]
compound = "Cc1ccc(Nc2nnc(C)cc2-c2cccc(C(F)(F)F)c2)c(C)c1"
units_symbol = "%"
meas_value = 25

[[record]]
compound = "COc1ccc(CNc2nnc(C)cc2-c2cccc(C(F)(F)F)c2)cc1"
units_symbol = "%"
meas_value = 0


Kindly consider the entry below.
Query string: Look up inhibition at 750 g/ha: Cc1cc(-c2cccc(C(F)(F)F)c2)c(NC(C)c2ccc(F)cc2)nn1 (centres undefined)
Result string: 0

###

tested on: Echinochloa crus-galli; assay: Herbicidal activity against Echinochloa crus-galli (barnyard grass) assessed as inhibition of fresh plant weight at 750 g/ha using preemergence protocol measured after 24 days under green house conditions; conditions: pre-emergence
parameter_measured: inhibition at 750 g/ha (%)
Give the quantity in %, number only.

Query string: Look up inhibition at 750 g/ha: Cc1cc(-c2cccc(C(F)(F)F)c2)c(NCc2ccccc2Cl)nn1
Result string: 3

Query string: Look up inhibition at 750 g/ha: Cc1cc(-c2cccc(C(F)(F)F)c2)c(Nc2cccc(Cl)c2)nn1
Result string: 0

Query string: Look up inhibition at 750 g/ha: Cc1cc(-c2cccc(C(F)(F)F)c2)c(Nc2ccc(Cl)cc2)nn1
Result string: 0

Query string: Look up inhibition at 750 g/ha: Cc1cc(-c2cccc(C(F)(F)F)c2)c(NC(C)c2ccccc2)nn1 (configuration not stated)
Result string: 10

Query string: Look up inhibition at 750 g/ha: COc1ccccc1Nc1nnc(C)cc1-c1cccc(C(F)(F)F)c1
Result string: 0

Query string: Look up inhibition at 750 g/ha: Cc1cccc(Nc2nnc(C)cc2-c2cccc(C(F)(F)F)c2)c1
Result string: 8

Query string: Look up inhibition at 750 g/ha: Cc1cc(-c2cccc(C(F)(F)F)c2)c(Nc2ccc(F)cc2)nn1
Result string: 2

Query string: Look up inhibition at 750 g/ha: Cc1cc(-c2cccc(C(F)(F)F)c2)c(Nc2cccc(C(F)(F)F)c2)nn1
Result string: 0

Query string: Look up inhibition at 750 g/ha: Cc1cc(-c2cccc(C(F)(F)F)c2)c(Nc2ccccc2F)nn1
Result string: 0

Query string: Look up inhibition at 750 g/ha: Cc1cc(-c2cccc(C(F)(F)F)c2)c(Nc2ccccc2)nn1
Result string: 43

Query string: Look up inhibition at 750 g/ha: Cc1ccc(Nc2nnc(C)cc2-c2cccc(C(F)(F)F)c2)c(C)c1
Result string: 0

Query string: Look up inhibition at 750 g/ha: Cc1cc(-c2cccc(C(F)(F)F)c2)c(NC(C)c2ccc(Cl)cc2)nn1 (configuration not stated)
Result string: 13

Query string: Look up inhibition at 750 g/ha: Cc1cc(-c2cccc(C(F)(F)F)c2)c(NCc2ccc(Cl)cc2)nn1
Result string: 9
